FYI, the data here is from ChEMBL document CHEMBL1152062.

# assayed_system: D(2) dopamine receptor (Rattus norvegicus, UniProt P61169)
# Sequence (P61169 whole entry): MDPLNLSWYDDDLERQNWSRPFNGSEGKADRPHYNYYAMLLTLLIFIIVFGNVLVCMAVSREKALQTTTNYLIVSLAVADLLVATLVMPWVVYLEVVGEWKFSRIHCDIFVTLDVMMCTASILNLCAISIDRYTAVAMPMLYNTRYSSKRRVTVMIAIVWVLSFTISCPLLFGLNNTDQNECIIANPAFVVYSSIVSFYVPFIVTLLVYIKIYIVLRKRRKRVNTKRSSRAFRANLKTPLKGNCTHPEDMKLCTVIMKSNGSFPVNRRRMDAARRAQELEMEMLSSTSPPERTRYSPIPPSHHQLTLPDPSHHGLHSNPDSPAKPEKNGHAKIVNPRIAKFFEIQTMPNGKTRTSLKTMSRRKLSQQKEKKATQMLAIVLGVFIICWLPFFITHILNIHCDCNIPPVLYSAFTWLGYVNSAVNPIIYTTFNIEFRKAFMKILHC
# assay_remarks: Affinity of the Compound for Dopamine receptor D2 in rat striatal membrane was determined in vitro using Dopamine Antagonist [3H]spiperone as ligand; Value ranges from (124-550)
# Type: cell membranes, Striatum
assay_metric: IC50 (nM)
Entry rule: numbers only, all in nM.

Input line: Sample Nc1nc2c(s1)CC(N1CCN(c3ccccn3)CC1)CC2 (racemic) — what was its IC50?
Output line: 320

====

# assayed_system: D(2) dopamine receptor (Rattus norvegicus, UniProt P61169)
# assay_remarks: Affinity of the Compound for Dopamine receptor D2 in rat striatal membrane was determined in vitro using Dopamine Antagonist [3H]spiperone as ligand; Value ranges from (580-1050)
# Assay type: cell membranes, Striatum
assay_metric: IC50 (µM)
Field format: number, assumed µM, no unit text.

Input line: Item under review: Nc1nc2c(s1)C[C@@H](N1CCN(c3ccccn3)CC1)CC2 . Reported IC50?
Output line: 0.8
